Target: kinase-domain human PKCι (Homo sapiens)
Construct: Recombinant, kinase-domain human PKCι is expressed and purified in-house; made in house
Sequence (P41743 254-522 limits assumed): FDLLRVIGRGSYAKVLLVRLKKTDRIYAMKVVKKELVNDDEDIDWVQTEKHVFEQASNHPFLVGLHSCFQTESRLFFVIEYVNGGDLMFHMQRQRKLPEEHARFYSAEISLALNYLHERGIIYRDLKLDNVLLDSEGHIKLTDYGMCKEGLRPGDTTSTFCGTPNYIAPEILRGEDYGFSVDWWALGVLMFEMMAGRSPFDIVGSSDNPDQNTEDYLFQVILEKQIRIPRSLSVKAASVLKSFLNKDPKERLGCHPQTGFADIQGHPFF
Experiment: PKCι IC50 IMAP fluorescence polarisation assay, kinase-domain enzyme
Type: biochemical
Conditions: kinase domain PKCi at 2 μM ATP; read-out: IC50 in IMAP assay against kinase domain PKCi (Activity)
MEASUREMENT_KIND: IC50

INSERT INTO assay_data (molecule, measurement_kind, measured_result) VALUES
  ('c1cc(-c2nc(O[C@H]3CCNC3)c3c4c(sc3n2)CCCC4)ccn1 [compound 140]', 'IC50', '1 to 10 µM'),
  ('CC(C)c1cc2c(NC[C@@H](N)Cc3ccccc3)nc(-c3ccncc3)nc2s1 [compound 75]', 'IC50', '1 to 10 µM'),
  ('c1cc(-c2nc(OC3CNC3)c3c4c(sc3n2)CCCC4)ccn1 [compound 152]', 'IC50', '1 to 10 µM');
